So I've got a bunch of compounds here, and I need their log10 EC10 values.
Test system: Mitochondrial Membrane Potential
Assay: cells
Conditions: Arec32, read-out: logEC10
Excerpt: All bioassay media components and the ERα-UAS-bla GripTite and PPARγ-UAS-bla cells were obtained from Thermo Fisher Scientific (Waltham, MA, USA). AREc32 reporter gene cells based on MCF7 were provided by C. Roland Wolf (Cancer Research UK); AhR CALUX cells (H4L7.5c2 derived from H4IIe) were provided by Michael Denison (UC Davis, USA); and SH-SY5Y cells were purchased from Sigma-Aldrich. […]
Values are log10 of EC10 in µM.

Please review the entries below; each comes with its answer.
> print(dat)
                                   compound  observed.value
1  Oc1ccc(Cc2ccc(O)cc2)cc1 [BPF, Bis(4-hydroxyphenyl)methane]            2.22
2  CC(C)(c1cc(Br)c(O)c(Br)c1)c1cc(Br)c(O)c(Br)c1            1.45
3  CC(C)(c1ccc(O)c(-c2ccccc2)c1)c1ccc(O)c(-c2ccccc2)c1 [BPPH, 2,2-Bis(2-hydroxy-5-biphenylyl)propane]            0.29
4  CC(C)(c1ccc(O)cc1)c1ccc(O)cc1 [BPA, 4,4'-(Propane-2,2-diyl)diphenol, reference compound]            1.45
5  CC1(C)[C@H](O)C(C)(C)[C@H]1O [Trans TMCD]            4.27
6        CC(C)CC(C)(c1ccc(O)cc1)c1ccc(O)cc1            1.06

Look up log10 EC10 for the entries below, preserving their order.
1. CC(c1ccc(O)cc1)c1ccc(O)cc1
2. CC(C)c1cc(C(C)(C)c2ccc(O)c(C(C)C)c2)ccc1O

1: 1.51; 2: 0.49

These data points were gathered from paper PMC12392461.
